Parameter mass density: see the listing below.
- Particulars: 393.15 K; 100 kPa; Liquid
Metric: mass density (kg/m3)

>  <Compound>
CCn1cc[n+](CC)c1.O=S(=O)([N-]S(=O)(=O)C(F)(F)F)C(F)(F)F [1,3-diethylimidazolium bis[(trifluoromethyl)sulfonyl]imide]

>  <Val>
1364.2

$$$$
>  <Compound>
CCOS(=O)(=O)[O-].CCn1cc[n+](C)c1 [1-ethyl-3-methylimidazolium ethyl sulfate]

>  <Val>
1176.6

$$$$
>  <Compound>
CCCCCCCCCCn1cc[n+](C)c1.O=S(=O)([N-]S(=O)(=O)C(F)(F)F)C(F)(F)F

>  <Val>
1191.8

$$$$
>  <Compound>
CCn1cc[n+](C)c1.COS(=O)(=O)[O-] [1-ethyl-3-methylimidazolium methylsulfate]

>  <Val>
1218.1

$$$$
